Below: a set of entries, each annotated with reported viability, T/C.
System: Hs578T complex spheroid growth, percent test/control
Assay: Anticancer human tumor Hs578T cell line growth inhibition [AhR];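 note: luminescent viability signal as a proxy for spheroid growth; spheroids exposed to agents for one week after three days of growth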
Settings: second compound 1 µM; first compound 3 µM; active compounds read low

Compound	viability, T/C, %
CCN(c1cc(-c2ccc(CN3CCOCC3)cc2)cc(C(=O)NCc2c(C)cc(C)[nH]c2=O)c1C)C1CCOCC1 + CC(CO)NC(=O)c1cc(-c2ccc(Cl)cc2)nn(-c2cnn(C)c2)c1=O	113
O=C(C=Cn1cnc(-c2cc(C(F)(F)F)cc(C(F)(F)F)c2)n1)NNc1cnccn1 + CC(CO)NC(=O)c1cc(-c2ccc(Cl)cc2)nn(-c2cnn(C)c2)c1=O	18.6
O=C(C=Cn1cnc(-c2cc(C(F)(F)F)cc(C(F)(F)F)c2)n1)NNc1cnccn1 + Cc1ccccc1N=Nc1ccc(NC(=O)c2ccnn2C)c(C)c1	13.2
O=C(C=Cn1cnc(-c2cc(C(F)(F)F)cc(C(F)(F)F)c2)n1)NNc1cnccn1 + Cc1cncc(-c2nc(NCCc3c[nH]c4ccccc34)c3ncn(C(C)C)c3n2)c1	19.2
CCN(c1cc(-c2ccc(CN3CCOCC3)cc2)cc(C(=O)NCc2c(C)cc(C)[nH]c2=O)c1C)C1CCOCC1 + Cc1cncc(-c2nc(NCCc3c[nH]c4ccccc34)c3ncn(C(C)C)c3n2)c1	93.3
CCN(c1cc(-c2ccc(CN3CCOCC3)cc2)cc(C(=O)NCc2c(C)cc(C)[nH]c2=O)c1C)C1CCOCC1 + Cc1ccccc1N=Nc1ccc(NC(=O)c2ccnn2C)c(C)c1	94.9

###

Tested on: Hs578T complex spheroid growth, percent test/control
Assay: Anticancer human tumor Hs578T cell line growth inhibition [AhR]; active = viability on the fitted dose curve at most 10% of control; inactive = the rest;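 note: luminescent viability signal as a proxy for spheroid growth; spheroids exposed to agents for one week after three days of growth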
Conditions: second compound 10 µM; first compound 0.949 µM
Outcome codes: 1 for active, -1 for inactive

Molecule	Assigned Label
CCN(c1cc(-c2ccc(CN3CCOCC3)cc2)cc(C(=O)NCc2c(C)cc(C)[nH]c2=O)c1C)C1CCOCC1 + CC(CO)NC(=O)c1cc(-c2ccc(Cl)cc2)nn(-c2cnn(C)c2)c1=O	-1
O=C(C=Cn1cnc(-c2cc(C(F)(F)F)cc(C(F)(F)F)c2)n1)NNc1cnccn1 + Cc1cncc(-c2nc(NCCc3c[nH]c4ccccc34)c3ncn(C(C)C)c3n2)c1	1
O=C(C=Cn1cnc(-c2cc(C(F)(F)F)cc(C(F)(F)F)c2)n1)NNc1cnccn1 + CC(CO)NC(=O)c1cc(-c2ccc(Cl)cc2)nn(-c2cnn(C)c2)c1=O	-1
O=C(C=Cn1cnc(-c2cc(C(F)(F)F)cc(C(F)(F)F)c2)n1)NNc1cnccn1 + Cc1ccccc1N=Nc1ccc(NC(=O)c2ccnn2C)c(C)c1	-1
CCN(c1cc(-c2ccc(CN3CCOCC3)cc2)cc(C(=O)NCc2c(C)cc(C)[nH]c2=O)c1C)C1CCOCC1 + Cc1ccccc1N=Nc1ccc(NC(=O)c2ccnn2C)c(C)c1	-1
CCN(c1cc(-c2ccc(CN3CCOCC3)cc2)cc(C(=O)NCc2c(C)cc(C)[nH]c2=O)c1C)C1CCOCC1 + Cc1cncc(-c2nc(NCCc3c[nH]c4ccccc34)c3ncn(C(C)C)c3n2)c1	1

###

Below: a set of entries, each annotated with reported viability, T/C.
System: Hs578T complex spheroid growth, percent test/control
Experiment: Anticancer human tumor Hs578T cell line growth inhibition [AhR];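 note: luminescent viability signal as a proxy for spheroid growth; spheroids exposed to agents for one week after three days of growth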
Conditions: second compound 0.1 µM; first compound 0.316 µM; active compounds read low
From the text: Multicellular complex tumor spheroid response to aryl hydrocarbon receptor antagonists in combination with a variety of drugs and investigational agents in selected tumor cell lines […] Compounds. […] If the clinical Cmax for an agent had not been determined, the highest concentration tested was 10 microM (Table 1). […]

Molecule	viability, T/C (%)
Nc1ccccc1NC(=O)c1ccc(CNC(=O)OCc2cccnc2)cc1 + CC(CO)NC(=O)c1cc(-c2ccc(Cl)cc2)nn(-c2cnn(C)c2)c1=O	108
COc1ccc([C@@H](O)c2cc(-c3ncnc4cc(N5CCOCC5)ccc34)c(F)cc2Cl)nn1 + Cc1ccccc1N=Nc1ccc(NC(=O)c2ccnn2C)c(C)c1	92.8
CC1COCCN1c1cc(C2(S(C)(=N)=O)CC2)nc(-c2ccnc3[nH]ccc23)n1 (stereo not drawn) + Cc1cncc(-c2nc(NCCc3c[nH]c4ccccc34)c3ncn(C(C)C)c3n2)c1	111
